Quick reference for activity, negative = cell killing among some compounds
Assay: Drug repurposing screens with cells derived from glioblastoma tumor samples (AID 1345199); note: % is set by controls: 0 for no effect and ±100 for the full control effect; nearly all actives have a fitted effect of over 40% in size
Conditions: GBM patient neurospheres viability, ATP luminescence, 48 h; at 45.9 µM (top of the series); tumour line B
Description: CD133+ cells were isolated from GBM patient biopsies and cultured as neurospheres. Neurospheres from four patients were used to screen the NCATS pharmaceutical collection (NPC) library of approved drugs and bioactive compounds. […] The neurospheres were incubated with drugs for 48 hours in 1536-well format, then assayed with an ATP content cell viability assay. […]
Results filed as inconclusive are left out.
Answer format: numeric, % implied, no suffix.

- compound: "c1ccc2sc(SSc3nc4ccccc4s3)nc2c1"
  activity, negative = cell killing (%): -16.9
- compound: "O=C(O)c1cc(O)c(O)c(O)c1"
  activity, negative = cell killing (%): -10.4
- compound: "C#C[C@]1(O)CC[C@H]2[C@@H]3CCc4cc(O)ccc4[C@H]3CC[C@@]21C"
  activity, negative = cell killing (%): -15.9

What measured activity, negative = cell killing goes with `C[C@H](O)[C@H](O)[C@H]1CNc2nc(N)[nH]c(=O)c2N1` ?
-2.46

What measured activity, negative = cell killing goes with `CCCCCCCCCCCCCCCCCC(=O)O` ?
-6.65

What measured activity, negative = cell killing goes with `O=C(OCc1ccccc1)c1ccccc1` ?
-4.23

What measured activity, negative = cell killing goes with `CCOc1ccc2nc(S(N)(=O)=O)sc2c1` ?
-0.995

What measured activity, negative = cell killing goes with `CCCCC[C@H](O)/C=C/[C@@H]1[C@@H](C/C=C\CCCC(=O)O)[C@@H](O)C[C@H]1O` ?
1.47

What measured activity, negative = cell killing goes with `CC1(C)S[C@@H]2[C@H](NC(=O)[C@H](N)c3ccc(O)cc3)C(=O)N2[C@H]1C(=O)O` ?
2.03

====

Biological target: Cytochrome P450 1A2 (Homo sapiens) (UniProt P05177)
Sequence (P05177 whole entry, looked up): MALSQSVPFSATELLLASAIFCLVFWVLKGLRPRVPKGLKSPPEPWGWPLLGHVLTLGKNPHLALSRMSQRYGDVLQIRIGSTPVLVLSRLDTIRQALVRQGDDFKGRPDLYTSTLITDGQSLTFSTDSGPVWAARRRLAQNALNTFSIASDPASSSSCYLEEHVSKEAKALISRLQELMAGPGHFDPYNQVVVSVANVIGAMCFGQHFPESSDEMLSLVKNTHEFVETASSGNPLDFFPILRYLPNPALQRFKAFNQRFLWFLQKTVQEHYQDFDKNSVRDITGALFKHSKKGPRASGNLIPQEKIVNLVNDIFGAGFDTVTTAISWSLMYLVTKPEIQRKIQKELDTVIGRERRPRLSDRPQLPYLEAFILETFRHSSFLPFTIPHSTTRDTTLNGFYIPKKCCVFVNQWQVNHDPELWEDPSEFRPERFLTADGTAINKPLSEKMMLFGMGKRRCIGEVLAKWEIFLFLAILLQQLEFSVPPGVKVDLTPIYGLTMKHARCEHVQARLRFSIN
Assay: p450-cyp1a2 (AID 410)
Details: recombinant CYP1A2, luciferin-ME demethylation, luminescence; series mostly up to 57 µM
Description: The P450 gene superfamily is involved in metabolism and the clearance of xenobiotics. This assay used human CYP1A2 to measure the demethylation of luciferin 6' methyl ether (Luciferin-ME; Promega-Glo) to luciferin. The luciferin is then measured by luminescence after the addition of a luciferase detection regeant. Luciferin-ME concentration in the assay was equal to its Km for CYP1A2. NCGC Assay Protocol Summary: […]
Inconclusive results are not listed. Activity calls are given as the source filed them. Calls come from the whole dose curve.
Respond using exactly one of the listed classes: TRUE for active, FALSE for inactive

- smilesInput: "CC(C)(C=O)Cc1cc(C(C)(C)C)c(O)c(C(C)(C)C)c1"
  systemName: "Cytochrome P450 1A2 (Homo sapiens) (UniProt P05177)"
  category: "TRUE"
- smilesInput: "CN1CCc2cc(NC(=O)Nc3cccnc3)ccc21"
  systemName: "Cytochrome P450 1A2 (Homo sapiens) (UniProt P05177)"
  category: "TRUE"
- smilesInput: "Cc1ccc(C(=O)c2ccc(CC(=O)O)n2C)cc1"
  systemName: "Cytochrome P450 1A2 (Homo sapiens) (UniProt P05177)"
  category: "FALSE"
- smilesInput: "CCCCN1CCC(n2c(=O)[nH]c3ccccc32)CC1"
  systemName: "Cytochrome P450 1A2 (Homo sapiens) (UniProt P05177)"
  category: "FALSE"
- smilesInput: "C=C[C@H]1CN2CC[C@@H]1C[C@@H]2[C@@H](O)c1ccnc2ccc(OC)cc12"
  systemName: "Cytochrome P450 1A2 (Homo sapiens) (UniProt P05177)"
  category: "FALSE"

Outcome? `Nc1ccc(O)c(C(=O)O)c1`
FALSE

Origin of the recorded values: PubChem BioAssay (NCATS)
